Experiment: inhibitors of HIV-1 Env-driven cell-cell fusion, primary screen, HeLa-JRFL effector, CEM21 target cells, luciferase (AID 651610);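 also: 0% = plate neutral controls and 100% = maraviroc near 300 nM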
Conditions: at 16.7 µM unless noted
Hit rate of the full screen: of about 360,000 compounds, about 3,900 (1.1%) were called active.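 The calls were made as follows: active = mean replicate inhibition score of at least 50 and every replicate individually at or above 50; inconclusive = only one of the two criteria met; inactive = mean below 50 and not all replicates reaching 50.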 This is one part of a sample in which actives are shown more often than they occur.
Labels: T (active), F (inactive)

compound	assigned category
CCOC(=O)N1CCN(C(=O)c2nn(-c3ccc(C)cc3)c(=O)c3c2c2ccccc2n3C)CC1	F
C[C@H]1CN([C@@H](C)CO)C(=O)c2cc(NC(=O)Nc3ccc4c(c3)OCO4)ccc2O[C@H]1CN(C)S(=O)(=O)c1ccc(F)cc1	T
CC(C)(C)NCc1cc(Br)ccc1OC1CCCC1	F
COc1ccc(S(=O)(=O)N(C)C[C@H]2Oc3ccc(NC(=O)Nc4ccccc4)cc3CC(=O)N([C@H](C)CO)C[C@@H]2C)cc1	F
CCC(=O)N1[C@H](C(=O)NCc2ccc(F)cc2)[C@@H](CO)[C@@H]2Cn3c(ccc(C4=CCCCC4)c3=O)[C@@H]21	F
C[C@@H]1CN([C@H](C)CO)C(=O)c2cc(NC(=O)Nc3ccccc3)ccc2O[C@H]1CN(C)S(=O)(=O)c1ccc(F)cc1	F
CCCCNC(=O)C[C@@H]1C[C@@]2(C(=O)OC)CC(C)(C)CC=C2N(Cc2ccco2)C1=O	F
COc1ccc(C(CNC(=O)COc2ccccc2OC)N2CCCCC2)cc1 (configuration not stated)	F
C[C@H](CO)N1C[C@H](C)[C@@H](CN(C)S(=O)(=O)c2ccc(F)cc2)Oc2c(NC(=O)Nc3ccccc3)cccc2C1=O	F
COc1ccc(C#Cc2cnc3c(c2)C(=O)N([C@H](C)CO)C[C@@H](C)[C@@H](CN(C)C(=O)CN(C)C)O3)cc1	F
CC(NCc1ccccc1OC1CCCC1)c1ccccc1 (configuration not stated)	T
C[C@@H]1CN([C@H](C)CO)C(=O)c2cccc(NC(=O)Nc3cccc4ccccc34)c2O[C@@H]1CN(C)C(=O)Nc1cccc2ccccc12	F
Cc1cccc(C)c1-n1nnnc1C(CCc1ccccc1)N1CCN(C/C=C/c2ccccc2)CC1 (configuration not stated)	F
CNC[C@@H]1Oc2c(NC(=O)Nc3ccc(OC)cc3)cccc2C(=O)N([C@@H](C)CO)C[C@@H]1C	F
COc1ccc(NC(=O)Nc2ccc3c(c2)CC(=O)N([C@H](C)CO)C[C@H](C)[C@H](CN(C)S(=O)(=O)c2ccccc2)O3)cc1	T
CNC[C@H]1Oc2c(NC(=O)Nc3cccc4ccccc34)cccc2C(=O)N([C@H](C)CO)C[C@H]1C	T
COc1cc(CNC2CCCCC2)c(Br)cc1OC1CCCC1	F

---

Assay: inhibitors of HIV-1 Env-driven cell-cell fusion, primary screen, HeLa-JRFL effector, CEM21 target cells, luciferase (AID 651610);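 also: 0% = plate neutral controls and 100% = maraviroc near 300 nM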
Conditions: at 16.7 µM unless noted
The whole screen tested about 360,000 compounds, of which about 3,900 (1.1%) were called active.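 How the source made its calls: active means mean replicate inhibition score of at least 50 and every replicate individually at or above 50; inconclusive means only one of the two criteria met; inactive means mean below 50 and not all replicates reaching 50.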 This is one part of a sample in which actives are shown more often than they occur.
Labels: TRUE = active, FALSE = inactive

structure string	assigned category
C[C@H]1CN([C@@H](C)CO)C(=O)Cc2cc(NC(=O)C3CC3)ccc2O[C@@H]1CN(C)S(=O)(=O)c1cccs1	FALSE
C[C@H]1CN([C@@H](C)CO)C(=O)c2cc(NC(=O)NC3CCCCC3)ccc2O[C@@H]1CN(C)S(=O)(=O)c1cccs1	FALSE
C[C@@H]1CN([C@@H](C)CO)C(=O)Cc2cc(NS(=O)(=O)c3ccc(Cl)cc3)ccc2O[C@H]1CN(C)Cc1ccc(C(F)(F)F)cc1	TRUE
C[C@H](CO)N1C[C@H](C)[C@@H](CN(C)S(=O)(=O)c2ccc(Cl)cc2)Oc2ccc(NS(=O)(=O)c3cccs3)cc2CC1=O	FALSE

---

Assay: inhibitors of HIV-1 Env-driven cell-cell fusion, primary screen, HeLa-JRFL effector, CEM21 target cells, luciferase (AID 651610);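 also: 0% = plate neutral controls and 100% = maraviroc near 300 nM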
Conditions: at 16.7 µM unless noted
About 3,900 (1.1%) of roughly 360,000 compounds were called active.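 The calls were made as follows: active = mean replicate inhibition score of at least 50 and every replicate individually at or above 50; inconclusive = only one of the two criteria met; inactive = mean below 50 and not all replicates reaching 50.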 The sample as a whole holds a higher share of actives than the screen did.
Labels: Yes for active, No for inactive

compound	assigned category
C[C@@H]1CN([C@H](C)CO)C(=O)c2cccc(NS(C)(=O)=O)c2O[C@@H]1CN(C)C(=O)Nc1cccc2ccccc12	No
COC(=O)CN(C(=S)Nc1ccc(Cl)cc1)C1CC(=O)N(c2ccc(OC)cc2)C1=O (stereo not given)	No
NC(=O)CSc1nnc(NC(=O)c2ccc(Br)o2)s1	No
CSc1nnc(NC(=O)c2nc(S(=O)(=O)Cc3ccc(C)cc3)ncc2Cl)s1	Yes
Cc1cccc(CS(=O)(=O)c2ncc(Cl)c(C(=O)Nc3ccc(F)cc3)n2)c1	No

---

Here the recorded inhibition is given for each entry.
Experiment: inhibitors of HIV-1 Env-driven cell-cell fusion, primary screen, HeLa-JRFL effector, CEM21 target cells, luciferase (AID 651610);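 also: 0% = plate neutral controls and 100% = maraviroc near 300 nM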
Details: stronger effect = higher value; at 16.7 µM unless noted
Hit rate of the full screen: of about 360,000 compounds, about 3,900 (1.1%) were called active. What follows is part of a selection rich in actives, with near analogues and random picks from the rest.

structure string	inhibition, %
O=C(C[C@H]1C[C@@H]2c3cc(NS(=O)(=O)c4ccc(F)cc4)ccc3O[C@@H]2[C@H](CO)O1)NCc1cccc(F)c1	54.4
CN1CCN(C(=O)C[C@H]2C[C@H]3c4cc(NC(=O)Nc5ccccc5F)ccc4O[C@H]3[C@H](CO)O2)CC1	-13.6
C[C@H](CO)N1C[C@H](C)[C@@H](CN(C)S(=O)(=O)c2cn(C)cn2)OCCCC[C@H](C)Oc2ccc(NC(=O)Cc3ccccc3)cc2C1=O	-9.54
O=C(C[C@@H]1C[C@@H]2c3cc(NS(=O)(=O)c4ccc(F)cc4)ccc3O[C@@H]2[C@H](CO)O1)NCc1ccccc1F	90.3

---

Assay: inhibitors of HIV-1 Env-driven cell-cell fusion, primary screen, HeLa-JRFL effector, CEM21 target cells, luciferase (AID 651610);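 also: 0% = plate neutral controls and 100% = maraviroc near 300 nM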
Conditions: at 16.7 µM unless noted
Among all 360,000 compounds or so, about 3,900 (1.1%) were called active.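 The calls were made as follows: active = mean replicate inhibition score of at least 50 and every replicate individually at or above 50; inconclusive = only one of the two criteria met; inactive = mean below 50 and not all replicates reaching 50.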 The sample as a whole holds a higher share of actives than the screen did.
Labels: 1 for active, -1 for inactive

molecule	assigned category
COc1ccc(N2C(=O)C(CC(=O)Nc3ccccc3)N(Cc3ccc(OC)c(OC)c3)C2=O)cc1 (stereo not drawn)	1
COc1ccc(CCN2C(=O)N(c3ccc(OC)cc3)C(=O)C2CC(=O)Nc2ccc(OC)cc2)cc1 (stereo not drawn)	-1
Cc1c(C(=O)Nc2cccc(S(=O)(=O)N3CCOCC3)c2)oc2ccccc12	1
COc1cc(/C=C(/NC(=O)c2ccc(Cl)cc2Cl)C(=O)O)cc(OC)c1OC	-1
COc1ccc(CCNc2ncnc3nc[nH]c23)cc1OC	-1
CN(C)C(=O)C[C@H]1C[C@H]2c3cc(NC(=O)Nc4ccccc4F)ccc3O[C@H]2[C@@H](CO)O1	-1
C[C@@H]1CCCCO[C@H](CN(C)C(=O)C2CCCCC2)[C@@H](C)CN([C@H](C)CO)C(=O)c2cc(NC(=O)C3CCCCC3)ccc2O1	-1
CCOc1ccc(N2C(=O)CC(N(CCc3ccc(OC)c(OC)c3)C(=S)Nc3ccccc3)C2=O)cc1 (stereo not drawn)	1
CCCOc1ccc(N2C(=O)CC(N(CCc3ccc(S(N)(=O)=O)cc3)C(C)=O)C2=O)cc1 (stereo not drawn)	-1
CCCNC(=O)N1CCC2(CC1)CN(C(=O)CN1CCOCC1)[C@H](CO)c1[nH]c3cc(OC)ccc3c12	-1
Cc1occc1C(=O)Nc1cccc(S(=O)(=O)N2CCOCC2)c1	-1
C[C@@H]1CN([C@@H](C)CO)C(=O)c2cc(NS(=O)(=O)c3ccccc3)ccc2O[C@@H](C)CCCCO[C@H]1CN(C)S(=O)(=O)c1cccs1	-1
CCOc1cc(/C=N/NC(=O)OC)ccc1OCCSc1ccc(Cl)cc1	-1
CNC(=O)C[C@@H]1CC[C@H]2[C@H](COc3ccc(NC(=O)C4CC4)cc3C(=O)N2C)O1	-1
CS(=O)(=O)N1[C@H](C#N)[C@H](c2ccc(C#CC3CCCC3)cc2)[C@H]1CO	-1
COc1ccc(NC(=O)c2oc3ccc(S(=O)(=O)N4CCOCC4)cc3c2C)cc1	-1
CCC(=O)N[C@H]1C=C[C@@H](CC(=O)NCC2CCCCC2)O[C@H]1CO	-1
C[C@@H]1CN([C@H](C)CO)C(=O)c2cccc(NC(=O)Nc3ccccc3)c2O[C@H]1CN(C)Cc1ccccc1	-1

---

Assay: inhibitors of HIV-1 Env-driven cell-cell fusion, primary screen, HeLa-JRFL effector, CEM21 target cells, luciferase (AID 651610);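 also: 0% = plate neutral controls and 100% = maraviroc near 300 nM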
Settings: stronger effect = higher value; at 16.7 µM unless noted
Screen size: about 360,000 compounds; about 3,900 (1.1%) were called active. What follows is part of a selection rich in actives, with near analogues and random picks from the rest.

molecule	inhibition
Cc1cccc(N(CC(O)CN(C)C)S(=O)(=O)c2ccccc2)c1 (stereo not drawn)	-28.3% [at 12.3 µM] (inactive)
CN(C)C(=O)C[C@H]1C=C[C@@H](NC(=O)C2CCC2)[C@@H](CO)O1	24.4% (inactive)
CCCCC1(C(=O)OCC)NC(c2ccc(O)cc2)C2C(=O)N(c3ccccc3)C(=O)C21 (stereo not drawn)	2.85% [at 12.3 µM] (inactive)
CCN1C(=O)[C@H]2[C@@H](c3ccc(C)cc3)N3C(=O)N(c4cccc(Br)c4)C(=O)[C@@]3(CC)[C@H]2C1=O	82.7% [at 12.3 µM] (active)
CC(C)CN(CC(C)C)CC(O)CN(c1ccccc1)S(=O)(=O)c1ccccc1[N+](=O)[O-] (stereo not drawn)	65.4% [at 12.3 µM] (active)
CCC(C)N1C(=S)SC(C)(C)C1N(O)C(=O)NC1CCCCC1 (stereo not drawn)	16.9% [at 12.3 µM] (inactive)
COc1ccc([C@@H]2[C@@H]3C(=O)N(C(C)(C)C)C(=O)[C@@H]3[C@]3(Cc4ccccc4)C(=O)N(c4cccc(Br)c4)C(=O)N23)cc1	33.2% [at 12.3 µM] (inactive)
C[C@@]12C(=O)N(c3cccc(Br)c3)C(=O)N1[C@H](c1ccc(Cl)cc1)[C@@H]1C(=O)N(C3CCCCC3)C(=O)[C@@H]12	-9.25% [at 12.3 µM] (inactive)
